- method.description: self-splicing fitness, log relative to wild type (ln ratio); higher = more splicing; Tetrahymena group I intron in knt gene, E. coli kanamycin selection, DiMSum; sequences stand for … in CUCUCU…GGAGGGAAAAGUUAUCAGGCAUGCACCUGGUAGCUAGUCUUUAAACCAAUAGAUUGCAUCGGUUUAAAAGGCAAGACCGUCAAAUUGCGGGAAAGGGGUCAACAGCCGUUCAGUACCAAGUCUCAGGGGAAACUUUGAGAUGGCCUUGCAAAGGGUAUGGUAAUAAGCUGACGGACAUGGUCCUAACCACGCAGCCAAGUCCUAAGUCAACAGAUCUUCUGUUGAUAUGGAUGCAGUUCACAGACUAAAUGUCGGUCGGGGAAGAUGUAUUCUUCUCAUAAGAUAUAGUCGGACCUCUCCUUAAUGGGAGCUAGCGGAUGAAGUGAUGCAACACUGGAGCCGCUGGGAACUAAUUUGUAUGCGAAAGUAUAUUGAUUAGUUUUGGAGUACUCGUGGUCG;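 further: selection with 25 µg/mL kanamycin versus none on LB agar overnight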
- setup.conditions: 30 °C

residue.sequence	self-splicing fitness (ln)
UUCAAGCAAUAUUACGUGAA	-0.675
UAUGAGCAAUAUUACGGUUC	-3.43
GCCCAGCAAUAUUACGCCUG	-3.5
UAGCAGCAAUAUUACGUGUC	-3.39
ACGUAGCAAUAUUACGUUGC	-3.35
GUUCAGCAAUAUUACGAAAU	-0.0391
CAGCAGCAAUAUUACGUACC	-3.85
AAAUAGCAAUAUUACGGGGC	-3.72
UACUAGCAAUAUUACGCGUA	-2.63
UCACAGCAAUAUUACGACAU	-3.58
AGGGAGCAAUAUUACGUGCU	-3.8
GCUCAGCAAUAUUACGGUUC	-0.806
CCGAAGCAAUAUUACGAACC	-3.42
AGGGAGCAAUAUUACGUGAG	-3.15
GUUGAGCAAUAUUACGAGAG	-3.95
AACCAGCAAUAUUACGCGUA	-0.386
CGGUAGCAAUAUUACGGUAG	-0.557
AGCUAGCAAUAUUACGGGUG	-1.04
CGAUAGCAAUAUUACGCGGG	-4.21
UGAUAGCAAUAUUACGGUGG	-2.08
CUACAGCAAUAUUACGGGGU	-3.62
CAAUAGCAAUAUUACGCCUG	-0.752
AUUAAGCAAUAUUACGUAUU	-2.15
ACAAAGCAAUAUUACGGUGC	-2.89
GUGUAGCAAUAUUACGAUUA	-1.58
CCAUAGCAAUAUUACGAUGG	-3.35
AAGGAGCAAUAUUACGCGCC	-2.85
UAUGAGCAAUAUUACGAGAG	-2.42
CGUCAGCAAUAUUACGUCUA	-0.831
GUAAAGCAAUAUUACGUCCU	0.164
GAAUAGCAAUAUUACGCGAA	-3.09
CAAAAGCAAUAUUACGGCAA	-1.96
GUACAGCAAUAUUACGAUUC	-0.318
